All values here come from ChEMBL document CHEMBL1201862.

# Test system: XF498
# ASSAY: NCI tumour cell line growth inhibition, 48 h
Calls of active or inactive are those of the source. Cut-off read from the data, not from the text of the source: active = GI50 up to about 1.1 µM and inactive = higher.
Please respond with reported GI50 for every item in the list.

What the record says about `CC1(C)COC(c2cccc3c2C(=O)c2cccc(Cl)c2-3)=N1` : GI50 is 46.7 µM (inactive)

# GI50 (compound: `CCOC(=O)C(=O)Nc1ccccc1C(F)(F)F` ) is > 100 µM (inactive)

The compound identified as `CCOc1ccc(NC(=O)C2=C(C)NC(C)=C(C(=O)Nc3ccc(OCC)cc3)C2c2ccccc2)cc1` registered its GI50 at > 100 µM (inactive)

Notebook: CSc1nc(NC2OC(CO)C(O)C(O)C2O)c(N)c(=O)[nH]1 (stereo unspecified) , GI50 read as > 100 µM (inactive)

For `Nc1nc(CCC(=O)Nc2cccc(C(F)(F)F)c2)cc(-c2cccc3ccccc23)n1` the compound record lists GI50 as > 100 µM (inactive)

Item: CC12CC(Sc3ccccc3N1)c1ccccc1O2 (stereo unspecified) | GI50: 16.3 µM (inactive)
